target: T1, hPDGFRb.mmh (human, UniProt P09619 33-531); assay: SPR, mAb captured, 37 C
T1 construct: Soluble monomeric construct; also called soluble human PDGFR-beta.mmh
T1 sequence (P09619 other isoform, or with tags, fused parts or gaps): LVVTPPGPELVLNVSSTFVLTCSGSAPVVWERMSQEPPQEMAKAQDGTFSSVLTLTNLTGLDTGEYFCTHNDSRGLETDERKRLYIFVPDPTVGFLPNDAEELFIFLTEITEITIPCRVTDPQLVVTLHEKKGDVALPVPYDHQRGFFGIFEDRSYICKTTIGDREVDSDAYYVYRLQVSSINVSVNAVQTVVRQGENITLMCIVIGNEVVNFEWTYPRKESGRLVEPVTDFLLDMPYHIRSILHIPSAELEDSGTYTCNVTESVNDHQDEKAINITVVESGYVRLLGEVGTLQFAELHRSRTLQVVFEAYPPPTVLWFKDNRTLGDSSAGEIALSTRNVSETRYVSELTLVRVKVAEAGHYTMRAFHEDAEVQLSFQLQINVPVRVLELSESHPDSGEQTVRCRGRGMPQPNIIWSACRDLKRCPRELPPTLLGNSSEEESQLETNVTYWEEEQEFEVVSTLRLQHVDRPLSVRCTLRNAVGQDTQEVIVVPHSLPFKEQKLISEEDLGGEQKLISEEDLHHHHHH
Experimental endpoint: pKd
# pKd: negative log10 of molar concentration; output just the value

Data request, read-out pKd, for H4H3105S (antibody, human IgG4, V domains shown, human IgG4 Fc (H4H prefix)) VH: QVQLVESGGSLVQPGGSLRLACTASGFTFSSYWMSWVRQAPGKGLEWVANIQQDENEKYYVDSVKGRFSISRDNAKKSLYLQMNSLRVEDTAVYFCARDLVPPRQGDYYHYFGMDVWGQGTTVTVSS VL: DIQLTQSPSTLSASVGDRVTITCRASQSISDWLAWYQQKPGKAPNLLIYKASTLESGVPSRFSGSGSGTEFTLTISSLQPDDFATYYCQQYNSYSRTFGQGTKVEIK 7.95

Data request, read-out pKd, for H4H3102S (antibody, human IgG4, V domains shown, human IgG4 Fc (H4H prefix)) VH: EVQLVESGGDLVHPGRSLRLSCVASGFTFDDYTMHWVRQAPGKGLEWVSAISWNGDNINYAGSVKGRFTISRDNAKNSLYLEMNSLRVEDTAFYYCAKGRGFSFGFNYLGQGTMVTVSS VL: AIRMTQSPSSLSASVGDRVTITCRASQDISNYLAWFQQQPGKAPKSLIYATSSLNSGVPSKFSGSGSGTDFTLTISSLQPEDFATYYCQQYKSYPLTFGGGTKVEIK 8.85

Data request, read-out pKd, for H4H3104S (antibody, human IgG4, V domains shown, human IgG4 Fc (H4H prefix)) VH: QVQLVESGGGLVQPGGSLRLSCAAAGFTFSHYWMSWVRQAPGKGLEWVATIKKDGSERYYVDSVKGRFTISRDNARNSMYLEMNSLRTEDTAIYYCARDIVTPNTDYYFGMDVWGQGTTVTVSS VL: DIQLTQSPSTLSASVGDRVTITCRASQSFNNWLSWYQQKPGKAPKLLIYMASTLESGVPSRFSGSGSGTDFTLTINSLQPDDFATYYCQQSNSYSRTFGHGTKVEIK 8.47
